- Tested on: Enterococcus sp.
- procedure.summary: in vitro antibacterial evaluation, MIC by broth dilution
- Type: cell-based
- condition.label: broth dilution, 18 hours at 35° C.; strain GC 4557
Numbered stars: 1 amine (or outer) side, 2 acyl side, 3 side chain; on linkers, the order of the positions; unused ones are H or OH. Square brackets hold non-standard residues; d marks the D form. Peptide text beside a SMILES is read from it. * marks the point of attachment. ξ: configuration not given here. X6 = N=C1NCC(CC(N[*:1])C(=O)[*:2])N1C1OC(CO)C(O)C(O)C1O; ξEnduracididine(βξ-OH,4'ξ) = N=C1NCC(C(O)C(N)C(=O)O)N1; X2 = OCC1OC(OC2C(CO)OC(*)C(O)C2O)C(O)C(O)C1O; ξPhe(βξ-Me) = CC(c1ccccc1)C(N)C(=O)O
Reported MIC Enterococcus faecium (GC 4557) is given for each of the following compounds.
A number alone suffices; assume µg/mL.

Past entries and their recorded results:
>  <compound>
Cc1ccc(CC2OCC3OC(OC4C(CO)OC(Oc5ccc(CC6NC(=O)C(C(C)c7ccccc7)NC(=O)CNC(=O)C(CO)NC(=O)C(C(O)C7CNC(=N)N7C7OC(CO)C(O)C(O)C7O)NC(=O)C(C(O)C7CNC(=N)N7)NC6=O)cc5)C(O)C4O)C(O)C(O)C3O2)cc1 (stereo not drawn)

>  <measured.property>
MIC Enterococcus faecium (GC 4557)

>  <measured.result>
1

$$$$
>  <compound>
CC(c1ccccc1)C1NC(=O)CNC(=O)C(CO)NC(=O)C(C(O)C2CNC(=N)N2C2OC(CO)C(O)C(O)C2O)NC(=O)C(C(O)C2CNC(=N)N2)NC(=O)C(Cc2ccc(OC3OC(CO)C(OC4OC5COC(CC67CC8CC(CC(C8)C6)C7)OC5C(O)C4O)C(O)C3O)cc2)NC1=O (stereo not drawn)

>  <measured.property>
MIC Enterococcus faecium (GC 4557)

>  <measured.result>
2

$$$$
>  <compound>
CC(c1ccccc1)C1NC(=O)CNC(=O)C(CO)NC(=O)C(C(O)C2CNC(=N)N2C2OC(CO)C(O)C(O)C2O)NC(=O)C(C(O)C2CNC(=N)N2)NC(=O)C(Cc2ccc(OC3OC(CO)C(OC4OC(COCC=C(c5ccccc5)c5ccccc5)C(O)C(O)C4O)C(O)C3O)cc2)NC1=O (stereo not drawn)

>  <measured.property>
MIC Enterococcus faecium (GC 4557)

>  <measured.result>
2

$$$$
>  <compound>
COc1ccc(COC2C(CO)OC(OC3C(CO)OC(Oc4ccc(CC5NC(=O)C(C(C)c6ccccc6)NC(=O)CNC(=O)C(CO)NC(=O)C(C(O)C6CNC(=N)N6C6OC(CO)C(O)C(O)C6O)NC(=O)C(C(O)C6CNC(=N)N6)NC5=O)cc4)C(O)C3O)C(O)C2O)cc1OCc1ccccc1 (stereo not drawn) [Example 239a]

>  <measured.property>
MIC Enterococcus faecium (GC 4557)

>  <measured.result>
4

$$$$
>  <compound>
COc1ccc(COCC2OC(OC3C(CO)OC(Oc4ccc(CC5NC(=O)C(C(C)c6ccccc6)NC(=O)CNC(=O)C(CO)NC(=O)C(C(O)C6CNC(=N)N6C6OC(CO)C(O)C(O)C6O)NC(=O)C(C(O)C6CNC(=N)N6)NC5=O)cc4)C(O)C3O)C(O)C(O)C2O)cc1OCc1ccccc1 (stereo not drawn)

>  <measured.property>
MIC Enterococcus faecium (GC 4557)

>  <measured.result>
2

$$$$

Requested read-out: MIC Enterococcus faecium (GC 4557). Entry: COC1CCC2(C)C(CCC3C2CCC2(C)C(C(C)CCC4OCC5OC(OC6C(CO)OC(Oc7ccc(CC8NC(=O)C(C(C)c9ccccc9)NC(=O)CNC(=O)C(CO)NC(=O)C(C(O)C9CNC(=N)N9C9OC(CO)C(O)C(O)C9O)NC(=O)C(C(O)C9CNC(=N)N9)NC8=O)cc7)C(O)C6O)C(O)C(O)C5O4)CCC32)C1 (stereo not drawn)
32

# query: MIC Enterococcus faecium (GC 4557) of entry CC(c1ccccc1)C1NC(=O)CNC(=O)C(CO)NC(=O)C(CC2CNC(=N)N2C2OC(CO)C(O)C(O)C2O)NC(=O)C(C(O)C2CNC(=N)N2)NC(=O)C(Cc2ccc(OC3OC(CO)C(OC4OC(CO)C(O)C(O)C4O)C(O)C3O)cc2)NC1=O (stereo not drawn) [Example 284b] (cyclo(G[ξPhe(βξ-Me)]Y(X2)[ξEnduracididine(βξ-OH,4'ξ)][X6]S); configuration not given here)
128

For Cc1ccc(COCC2OC(OC3C(CO)OC(Oc4ccc(CC5NC(=O)C(C(C)c6ccccc6)NC(=O)CNC(=O)C(CO)NC(=O)C(C(O)C6CNC(=N)N6C6OC(CO)C(O)C(O)C6O)NC(=O)C(C(O)C6CNC(=N)N6)NC5=O)cc4)C(O)C3O)C(O)C(O)C2O)cc1 (stereo not drawn) , what is its reported MIC Enterococcus faecium (GC 4557)?
2

What MIC Enterococcus faecium (GC 4557) value was documented for this compound, CC(c1ccccc1)C1NC(=O)CNC(=O)C(CO)NC(=O)C(CC2CNC(=N)N2C2OC(CO)C(O)C(O)C2O)NC(=O)C(CC2CNC(=N)N2)NC(=O)C(Cc2ccc(OC3OC(CO)C(OC4OC(COCc5ccc(OCc6ccccc6)cc5)C(O)C(O)C4O)C(O)C3O)cc2)NC1=O (stereo not drawn) ?
4

* * *

- Test system: Streptococcus sp.
- procedure.summary: in vitro antibacterial evaluation, MIC by broth dilution
- Format: cell-based
- condition.label: broth dilution, 18 hours at 35° C.
measured.property: MIC Streptococcus pneumoniae (GC 1894)

>  <compound>
CC(c1ccccc1)C1NC(=O)CNC(=O)C(CO)NC(=O)C(CC2CN(Cc3ccccc3)C(=N)N2C2OC(CO)C(O)C(O)C2O)NC(=O)C(CC2CNC(=N)N2)NC(=O)C(Cc2ccc(OC3OC(CO)C(OC4OC5COC6(OC5C(O)C4O)C4CC5CC(C4)CC6C5)C(O)C3O)cc2)NC1=O (stereo not drawn) [Example 80]

>  <MIC Streptococcus pneumoniae (GC 1894)>
4 µg/mL

$$$$
>  <compound>
CC(c1ccccc1)C1NC(=O)CNC(=O)C(CO)NC(=O)C(C(O)C2CNC(=N)N2C2OC(CO)C(O)C(O)C2O)NC(=O)C(C(O)C2CNC(=N)N2)NC(=O)C(Cc2ccc(OC3OC(CO)C(OC4OC5COC6(CC(C)(C)CC(C)(C)C6)OC5C(O)C4O)C(O)C3O)cc2)NC1=O (stereo not drawn) [Example 207]

>  <MIC Streptococcus pneumoniae (GC 1894)>
<0.12 µg/mL

$$$$
>  <compound>
CC(c1ccccc1)C1NC(=O)CNC(=O)C(CO)NC(=O)C(C(O)C2CNC(=N)N2C2OC(CO)C(O)C(O)C2O)NC(=O)C(C(O)C2CNC(=N)N2)NC(=O)C(Cc2ccc(OC3OC(CO)C(OC4OC5COC6(CCCCC6(C)C)OC5C(O)C4O)C(O)C3O)cc2)NC1=O (stereo not drawn) [Example 205]

>  <MIC Streptococcus pneumoniae (GC 1894)>
<0.12 µg/mL

$$$$
>  <compound>
CC(c1ccccc1)C1NC(=O)CNC(=O)C(CO)NC(=O)C(C(O)C2CNC(=N)N2C2OC(CO)C(O)C(O)C2O)NC(=O)C(C(O)C2CNC(=N)N2)NC(=O)C(Cc2ccc(OC3OC(CO)C(OC4OC5COC6(CCCCC6)OC5C(O)C4O)C(O)C3O)cc2)NC1=O (stereo not drawn) [Example 203]

>  <MIC Streptococcus pneumoniae (GC 1894)>
0.12 µg/mL

$$$$

Quick one: MIC Streptococcus pneumoniae (GC 1894) for CC(c1ccccc1)C1NC(=O)CNC(=O)C(CO)NC(=O)C(C(O)C2CNC(=N)N2C2OC(CO)C(O)C(O)C2O)NC(=O)C(C(O)C2CNC(=N)N2)NC(=O)C(Cc2ccc(OC3OC(CO)C(OC4OC(COCc5ccc(Oc6ccccc6)cc5)C(O)C(O)C4O)C(O)C3O)cc2)NC1=O (stereo not drawn) [Example 236] ?
<0.06 µg/mL

// lookup MIC Streptococcus pneumoniae (GC 1894) for CC(c1ccccc1)C1NC(=O)CNC(=O)C(CO)NC(=O)C(C(O)C2CN(CCCCCCCCCCC(=O)O)C(=N)N2C2OC(CO)C(O)C(O)C2O)NC(=O)C(C(O)C2CNC(=N)N2)NC(=O)C(Cc2ccc(OC3OC(CO)C(OC4OC(CO)C(O)C(O)C4O)C(O)C3O)cc2)NC1=O (stereo not drawn) [Example 72]
16 µg/mL

* * *

- Tested on: Enterococcus sp.
- procedure.summary: in vitro antibacterial evaluation, MIC by broth dilution
- Format: cell-based
- condition.label: strain GC 2242; broth dilution, 18 hours at 35° C.
Recorded measurements of MIC Enterococcus faecalis (GC 2242), one per entry

Solved cases (3 shown):
>  <compound>
Cc1ccc(Oc2ccc(C3OCC4OC(OC5C(CO)OC(Oc6ccc(CC7NC(=O)C(C(C)c8ccccc8)NC(=O)CNC(=O)C(CO)NC(=O)C(C(O)C8CNC(=N)N8C8OC(CO)C(O)C(O)C8O)NC(=O)C(C(O)C8CNC(=N)N8)NC7=O)cc6)C(O)C5O)C(O)C(O)C4O3)cc2)cc1 (centres unmarked)

>  <MIC Enterococcus faecalis (GC 2242)>
2 µg/mL

$$$$
>  <compound>
COc1cc(-c2nc3cc(CC4NC(=O)C(C(C)c5ccccc5)NC(=O)CNC(=O)C(CO)NC(=O)C(C(O)C5CNC(=N)N5C5OC(CO)C(O)C(O)C5O)NC(=O)C(C(O)C5CNC(=N)N5)NC4=O)ccc3o2)cc(OC)c1OC (centres unmarked)

>  <MIC Enterococcus faecalis (GC 2242)>
32 µg/mL

$$$$
>  <compound>
CC(C)=CCCC(C)=CCOc1ccc(C2OCC3OC(OC4C(CO)OC(Oc5ccc(CC6NC(=O)C(C(C)c7ccccc7)NC(=O)CNC(=O)C(CO)NC(=O)C(C(O)C7CNC(=N)N7C7OC(CO)C(O)C(O)C7O)NC(=O)C(C(O)C7CNC(=N)N7)NC6=O)cc5)C(O)C4O)C(O)C(O)C3O2)cc1 (centres unmarked)

>  <MIC Enterococcus faecalis (GC 2242)>
8 µg/mL

$$$$

Moving on to the next compound.
Look up MIC Enterococcus faecalis (GC 2242): CCCc1ccc(C2OCC3OC(OC4C(CO)OC(Oc5ccc(CC6NC(=O)C(C(C)c7ccccc7)NC(=O)CNC(=O)C(CO)NC(=O)C(C(O)C7CNC(=N)N7C7OC(CO)C(O)C(O)C7O)NC(=O)C(C(O)C7CNC(=N)N7)NC6=O)cc5)C(O)C4O)C(O)C(O)C3O2)cc1 (centres unmarked)
<1 µg/mL
